These measurements were taken from patent US20130245081A1.

- ASSAY TEXT: clinical
- ASSAY CONDITIONS: human, in vivo, 150 mg
MEASURED ATTRIBUTE: half-life

According to the records, this compound CCCN[C@@H]1CCc2nc(N)sc2C1 [dexpramipexole] displays half-life of 6.63 to 8.73 h

###

- ASSAY TEXT: clinical
- ASSAY CONDITIONS: both, human, plasma, oral, 50 mg
- Method: A total of 54 subjects (30 subjects in Study CL001 and 24 subjects in Study CL002) were enrolled. […] Urine collected in each interval was well mixed, the pH was recorded, the total volume (or the weight and specific gravity) was recorded, and 2 aliquots of 20 mL each were collected into polypropylene containers and stored at −20° C. until they were shipped for analysis. […]
MEASURED ATTRIBUTE: half-life (h)
One number for each entry, in h.

According to the records, this compound CCCN[C@@H]1CCc2nc(N)sc2C1 [dexpramipexole] displays half-life of 6.87

###

- ASSAY TEXT: clinical
- ASSAY CONDITIONS: both, human, urine and plasma, oral, 150 mg, CLr, single 150 mg, fasted
MEASURED ATTRIBUTE: CL renal (mL/min)
Give bare numbers, in mL/min.

According to the records, this compound CCCN[C@@H]1CCc2nc(N)sc2C1 [dexpramipexole] displays CL renal of 385

###

- ASSAY TEXT: clinical
- ASSAY CONDITIONS: both, human, plasma, oral, 150 mg, AUC0-t, single 150 mg, fed
MEASURED ATTRIBUTE: AUC(0-t) (ng·h/mL)
One number for each entry, in ng·h/mL.

According to the records, this molecule CCCN[C@@H]1CCc2nc(N)sc2C1 [dexpramipexole] displays AUC(0-t) of 3080

###

- ASSAY TEXT: clinical
- ASSAY CONDITIONS: both, human, urine and plasma, oral, 100 mg
MEASURED ATTRIBUTE: CL renal (mL/min)
Give bare numbers, in mL/min.

According to the records, this compound CCCN[C@@H]1CCc2nc(N)sc2C1 [dexpramipexole] displays CL renal of 382

###

- ASSAY TEXT: clinical
- ASSAY CONDITIONS: both, human, plasma, oral, 300 mg, AUC0-t, single 300 mg, fasted
- Procedure: A total of 54 subjects (30 subjects in Study CL001 and 24 subjects in Study CL002) were enrolled. […] Urine collected in each interval was well mixed, the pH was recorded, the total volume (or the weight and specific gravity) was recorded, and 2 aliquots of 20 mL each were collected into polypropylene containers and stored at −20° C. until they were shipped for analysis. […]
MEASURED ATTRIBUTE: AUC(0-t) (ng·h/mL)
One number for each entry, in ng·h/mL.

According to the records, this molecule CCCN[C@@H]1CCc2nc(N)sc2C1 [dexpramipexole] displays AUC(0-t) of 8340

###

- ASSAY TEXT: clinical
- ASSAY CONDITIONS: both, human, plasma, oral, 150 mg, Cmax, single 150 mg, fed
MEASURED ATTRIBUTE: Cmax (ng/mL)
Give bare numbers, in ng/mL.

According to the records, this molecule CCCN[C@@H]1CCc2nc(N)sc2C1 [dexpramipexole] displays Cmax of 315

###

- ASSAY TEXT: clinical
- ASSAY CONDITIONS: both, human, plasma, oral, 100 mg
MEASURED ATTRIBUTE: Tmax (h)
One number for each entry, in h.

According to the records, this compound CCCN[C@@H]1CCc2nc(N)sc2C1 [dexpramipexole] displays Tmax of 2.02

###

- ASSAY TEXT: clinical
- ASSAY CONDITIONS: both, human, plasma, oral, t1/2, range over both Phase 1 studies, fasted conditions
MEASURED ATTRIBUTE: half-life

According to the records, this compound CCCN[C@@H]1CCc2nc(N)sc2C1 [dexpramipexole] displays half-life of 6.4 to 8.05 h

###

- ASSAY TEXT: clinical
- ASSAY CONDITIONS: both, human, plasma, oral, 150 mg, AUCinf, single 150 mg, fed
MEASURED ATTRIBUTE: AUC(0-inf) (ng·h/mL)
One number for each entry, in ng·h/mL.

According to the records, this compound CCCN[C@@H]1CCc2nc(N)sc2C1 [dexpramipexole] displays AUC(0-inf) of 3380

###

- ASSAY TEXT: clinical
- ASSAY CONDITIONS: both, human, plasma, oral, 150 mg
MEASURED ATTRIBUTE: Vd/F (L)
Give bare numbers, in L.

According to the records, this compound CCCN[C@@H]1CCc2nc(N)sc2C1 [dexpramipexole] displays Vd/F of 349

###

- ASSAY TEXT: clinical
- ASSAY CONDITIONS: both, human, plasma, oral, 100 mg
MEASURED ATTRIBUTE: Vd/F (L)
One number for each entry, in L.

According to the records, this compound CCCN[C@@H]1CCc2nc(N)sc2C1 [dexpramipexole] displays Vd/F of 348

###

- ASSAY TEXT: clinical
- ASSAY CONDITIONS: both, human, plasma, oral, 150 mg, t1/2, single 150 mg, fed
MEASURED ATTRIBUTE: half-life (h)
Answers are plain numbers, in h.

According to the records, this compound CCCN[C@@H]1CCc2nc(N)sc2C1 [dexpramipexole] displays half-life of 6.33

###

- ASSAY TEXT: clinical
- ASSAY CONDITIONS: both, human, plasma, oral, 50 mg, AUCinf, single 50 mg, fasted
MEASURED ATTRIBUTE: AUC(0-inf) (ng·h/mL)
Answers are plain numbers, in ng·h/mL.

According to the records, this molecule CCCN[C@@H]1CCc2nc(N)sc2C1 [dexpramipexole] displays AUC(0-inf) of 1250

###

- ASSAY TEXT: clinical
- ASSAY CONDITIONS: both, human, plasma, oral, 150 mg, Cmax, single 150 mg, fasted
MEASURED ATTRIBUTE: Cmax (ng/mL)
One number for each entry, in ng/mL.

According to the records, this compound CCCN[C@@H]1CCc2nc(N)sc2C1 [dexpramipexole] displays Cmax of 360

###

- ASSAY TEXT: clinical
- ASSAY CONDITIONS: both, human, plasma, oral, 150 mg, Vz/F, single 150 mg, fasted
MEASURED ATTRIBUTE: Vd/F (L)
Give bare numbers, in L.

According to the records, this molecule CCCN[C@@H]1CCc2nc(N)sc2C1 [dexpramipexole] displays Vd/F of 311

###

- ASSAY TEXT: clinical
- ASSAY CONDITIONS: both, human, plasma, oral, 150 mg
MEASURED ATTRIBUTE: half-life (h)
Answers are plain numbers, in h.

According to the records, this molecule CCCN[C@@H]1CCc2nc(N)sc2C1 [dexpramipexole] displays half-life of 8.05

###

- ASSAY TEXT: clinical
- ASSAY CONDITIONS: both, human, plasma, oral, 50 mg
MEASURED ATTRIBUTE: Vd/F

According to the records, this molecule CCCN[C@@H]1CCc2nc(N)sc2C1 [dexpramipexole] displays Vd/F of 255 L

###

- ASSAY TEXT: clinical
- ASSAY CONDITIONS: both, human, plasma, oral, Tmax, range over both Phase 1 studies, single and multiple doses
MEASURED ATTRIBUTE: Tmax

According to the records, this compound CCCN[C@@H]1CCc2nc(N)sc2C1 [dexpramipexole] displays Tmax of 1.75 to 2.58 h

###

- ASSAY TEXT: clinical
- ASSAY CONDITIONS: both, human, plasma, oral, 100 mg
MEASURED ATTRIBUTE: Cmax at 7 day (ng/mL)
One number for each entry, in ng/mL.

According to the records, this compound CCCN[C@@H]1CCc2nc(N)sc2C1 [dexpramipexole] displays Cmax at 7 day of 306

###

- ASSAY TEXT: clinical
- ASSAY CONDITIONS: both, human, plasma, oral, 300 mg, Tmax (median), single 300 mg, fasted
MEASURED ATTRIBUTE: Tmax (h)
Answers are plain numbers, in h.

According to the records, this molecule CCCN[C@@H]1CCc2nc(N)sc2C1 [dexpramipexole] displays Tmax of 1.98

###

- ASSAY TEXT: clinical
- ASSAY CONDITIONS: both, human, plasma, oral, 300 mg, elimination t1/2, single 50, 150, 300 mg; fasted
MEASURED ATTRIBUTE: half-life

According to the records, this molecule CCCN[C@@H]1CCc2nc(N)sc2C1 [dexpramipexole] displays half-life of 6.4 to 6.96 h

###

- ASSAY TEXT: clinical
- ASSAY CONDITIONS: both, human, urine and plasma, oral, 150 mg
MEASURED ATTRIBUTE: CL renal (mL/min)
Numbers only, in mL/min.

According to the records, this compound CCCN[C@@H]1CCc2nc(N)sc2C1 [dexpramipexole] displays CL renal of 451

###

- ASSAY TEXT: clinical
- ASSAY CONDITIONS: both, human, urine and plasma, oral, 300 mg, CLr, single 300 mg, fasted
MEASURED ATTRIBUTE: CL renal (mL/min)
One number for each entry, in mL/min.

According to the records, this molecule CCCN[C@@H]1CCc2nc(N)sc2C1 [dexpramipexole] displays CL renal of 441
